assay: Aqueous solubility; type: physicochemical; conditions: water; read-out: S
endpoint-label: solubility (µg/mL)
Answers are plain numbers, in µg/mL.

// known answers, use as guide
| compound | solubility [µg/mL] |
| --- | --- |
| COc1cc2cc(C(=O)CCC3CC[N+](C)(Cc4ccccc4)CC3)sc2cc1OC.[Br-] (stereo not drawn) | 2000 |
| COC(=O)c1ccc(C[n+]2ccc(CCC(=O)c3cc4cc(OC)c(OC)cc4s3)cc2)cc1 | 3500 |

Record COc1cc2cc(C(=O)CCc3cc[n+](CC4CC4)cc3)sc2cc1OC.[Br-] , field solubility: 15000

====

test: Aqueous solubility; format: physicochemical; conditions: water; read-out: S
Please note: satisfied applies when solubility is 2 mg/mL or greater, and not satisfied applies otherwise.

| compound | assigned-label |
| --- | --- |
| COc1cc2cc(C(=O)CCc3cc[n+](C)cc3)sc2cc1OC.[Br-] | satisfied |

Problem: # check: solubility of COc1cc2cc(C(=O)CC3(O)CC[N+](C)(Cc4ccccc4)CC3)sc2cc1OC.[Br-] (centres undefined) is greater than or equal to 2 mg/mL
Solution: not satisfied

Problem: # check: solubility of COc1cc2cc(CC3CC[N+](C)(Cc4ccccc4)CC3)sc2cc1OC.[Br-] (centres undefined) is greater than or equal to 2 mg/mL
Solution: satisfied

Problem: # check: solubility of COc1cc2cc(C(=O)CCCCC3CC[N+](C)(Cc4ccccc4)CC3)sc2cc1OC.[Br-] (centres undefined) is greater than or equal to 2 mg/mL
Solution: not satisfied

Problem: # check: solubility of COCC[N+]1(C)CCC(CCC(=O)c2cc3cc(OC)c(OC)cc3s2)CC1.[Br-] (centres undefined) is greater than or equal to 2 mg/mL
Solution: satisfied

Problem: # check: solubility of COc1cc2cc(C(=O)C=C3CC[N+](C)(Cc4ccccc4)CC3)sc2cc1OC.[Br-] (centres undefined) is greater than or equal to 2 mg/mL
Solution: satisfied

Problem: # check: solubility of COc1cc2cc(C(=O)CCC3CC[N+](C)(CC(=O)OC(C)(C)C)CC3)sc2cc1OC.[Br-] (centres undefined) is greater than or equal to 2 mg/mL
Solution: not satisfied

Problem: # check: solubility of COc1cc2cc(C(=O)CCc3cc[n+](CC4CCC4)cc3)sc2cc1OC.[Br-] is greater than or equal to 2 mg/mL
Solution: satisfied

====

experiment: Aqueous solubility; format: physicochemical; settings: water; read-out: S
For each entry below, report its solubility value.

| molecule | solubility |
| --- | --- |
| COc1cc2cc(C(O)C3CC[N+](C)(Cc4ccccc4)CC3)sc2cc1OC.[Br-] (centres undefined) | 2000 µg/mL |
| COc1cc2cc(C(=O)CCc3cc[n+](Cc4ccccc4)cc3)sc2cc1OC | 2000 µg/mL |
| COc1cc2cc(C(=O)CC3=CC[N+](C)(Cc4ccccc4)CC3)sc2cc1OC.[Br-] (centres undefined) | 20000 µg/mL |

--- query ---
Record COc1cc2cc(C(=O)CCc3cc[n+](Cc4ccsc4)cc3)sc2cc1OC , field solubility: 2000 µg/mL
